- Tgt: biotinylated CD59 (Homo sapiens, UniProt P13987)
- Construct: Recombinant soluble human CD59 with an additional C-terminal cysteine residue
- Sequence (P13987 26-102 limits assumed): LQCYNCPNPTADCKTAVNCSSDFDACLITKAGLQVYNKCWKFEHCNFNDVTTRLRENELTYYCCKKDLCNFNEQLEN
- Assay Remarks: mRNA-display cyclic peptide screen against CD59-biotin, NGS abundance after 6th selection round
- Condition Label: raw NGS counts of peptide sequence, sequencing sample Seq II, sheet R6 (6th selection round)
Property Name: Counts Seq II
Returns: the value as a bare number; no unit string appended.

# sequence `SSALERIGKCP` ; its Counts Seq II = 91

The reported value for `FVRGDPYSVLG` in terms of Counts Seq II is 21

Memo: `CFALRLSQTSV` , reported Counts Seq II: 18

Record `YAFGSRDITYY` . Reported Counts Seq II: 10

Item: `CFYQRTLGTTAS` | Counts Seq II: 9

Recorded result, `SAWGNRRIQYY` , Counts Seq II: 16

Documented Counts Seq II of `SISGGRDYTRG` : 11

Counts Seq II measured on `LLGTRDYVRLWH` = 60

Just so you know, measured Counts Seq II for `CFSQRLDRTSS` came out at 11

Sure, the documented Counts Seq II for `YIIGSSDYTRG` is 17

Lab book: Counts Seq II of `FIRGNSTSVLF` noted as 792

Lab note: measured Counts Seq II of `CFARRLSASLGT` was 9

`FQRGTRSTSWG` has a reported Counts Seq II of 15

Sample `HVLGNRSFTRG` ; Counts Seq II observed: 36

Short answer for `HVFGSRSFTRG` : Counts Seq II was 36

Counts Seq II recorded for this sequence, `WRDRFDRCVL` , is 14

Entry `AVRGSSFYVWG` — recorded Counts Seq II = 46

Sample `CYGSRTFIYAWS` ; Counts Seq II observed: 8

Measured Counts Seq II, `FVRGDQYSVLG` : 35

response.value for `FATGNRDHTRG` (field: Counts Seq II) = 6

###

- Tgt: biotinylated CD59 (Homo sapiens)
- Construct: Recombinant soluble human CD59 with an additional C-terminal cysteine residue
- Sequence (P13987 26-102 limits assumed): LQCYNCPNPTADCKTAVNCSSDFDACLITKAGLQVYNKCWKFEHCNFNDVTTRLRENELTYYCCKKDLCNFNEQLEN
- Assay Remarks: mRNA-display cyclic peptide screen against CD59-biotin, NGS abundance after 6th selection round
- Condition Label: percentage of the pool averaged across the two sequencing samples, sheet R6
For each entry below, report its Percentage Average value.
Numeric only. Scale: %

# Percentage Average (sequence: `IARGDWNHQFY` ) is 0.482

For `SWTWGNRSTVRG` the sequence record lists Percentage Average as 0.018

# sequence `GYLNECHTLYTQ` ; its Percentage Average = 0.043

Entry under test: `CFALRLSQTSV` . Its Percentage Average was 0.030

Looking up `SAWGNRQIQYY` , I see its Percentage Average listed as 7.059

So for `VARGNSNTVWG` , the logged Percentage Average turned out to be 0.020

// Percentage Average value for `WRDRFDQCVR` : 0.046

The measured Percentage Average associated with `CFAKRLSLDAL` reads 0.177

For reference, reported Percentage Average for `CYGGRAFIYAWS` stands at 0.043

Notebook: `SAWGNQQIQYY` , Percentage Average read as 0.027

Form field Percentage Average, entry `CFRFRLNATSS` : 0.068

Value of measured Percentage Average for the entry `CFARRLSASSGT` : 0.026

Form field Percentage Average, entry `YVYGSRDRCWG` : 0.443

Query `CFSHRPGPSI` yields Percentage Average of 0.140

Given item `FVRGDLYSVRG` , the value recorded as its Percentage Average is 0.025

The sequence identified as `SISGGRDYTRG` registered its Percentage Average at 0.029

Memo: `CFSHRSNSDGI` , reported Percentage Average: 0.087

In plain terms, `FVRGDPYSVLG` has a documented Percentage Average of 0.053

In plain terms, `HVSGNRSFTRG` has a documented Percentage Average of 0.029

Briefly, Percentage Average measured for `CFTYRLSDEPSA` : 0.027

###

- Tgt: biotinylated CD59 (Homo sapiens, UniProt P13987)
- Construct: Recombinant soluble human CD59 with an additional C-terminal cysteine residue
- Sequence (P13987 26-102 limits assumed): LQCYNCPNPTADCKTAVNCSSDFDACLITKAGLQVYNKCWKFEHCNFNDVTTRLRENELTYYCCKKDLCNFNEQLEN
- Assay Remarks: mRNA-display cyclic peptide screen against CD59-biotin, NGS abundance after 6th selection round
- Condition Label: counts normalised by total counts of NGS sample Seq I, sheet R6
- Text: To discover novel non‐protein CD59 ligands, we screened a library of 10^12 cyclic peptides against CD59 using mRNA‐display (Figure 2a).^[ [23], [24], [25], [26], [27], [28], [29] ^] Briefly, an mRNA library was designed in which the start codon was reprogrammed from Met to N‐chloroacetyl‐D‐Tyr (ClAc‐D‐Tyr), followed by 10–12 randomly encoded natural amino acids, a Cys residue, a (GlySer)3 linker, and a stop codon. […]
Consider the cut-off 0.01%. If the recorded Percentage of the pool, Seq I is strictly smaller, the label is Met; if not, the label is Not met.

Problem: Criterion: Percentage of the pool, Seq I strictly below 0.01%. Is it met by `CFAGRLTIDAAAAAAARTGGG` ?
Result: Not met

Problem: Percentage of the pool, Seq I under 0.01%? Item: `FVSGNRDHTRG`
Result: Not met

Problem: # check: Percentage of the pool, Seq I < 0.01% for `HVFGNKSFTRG`
Result: Not met

Problem: Dear colleague, could you confirm whether Percentage of the pool, Seq I of `YSCPDWVRGSRT` falls below 0.01%? Thanks.
Result: Met

Problem: Here's an entry: `PFAKRVAAQGGC` . Is its Percentage of the pool, Seq I below 0.01%?
Result: Met

Problem: Decide: Percentage of the pool, Seq I of `CFVNRLGSAESR` strictly below 0.01%?
Result: Not met

Problem: In plain terms, does `FVRGDLYSALG` come in under 0.01% for Percentage of the pool, Seq I?
Result: Not met

Problem: API: query returns whether the sequence falls strictly under 0.01% in Percentage of the pool, Seq I. Query: `LVRGDLYSVLG`
Result: Not met

Problem: Decide: Percentage of the pool, Seq I of `CFSARAVLDGGW` strictly below 0.01%?
Result: Not met

Problem: Strictly below 0.01% in Percentage of the pool, Seq I? `FVRGDLNSVLG`
Result: Not met

Problem: Check if Percentage of the pool, Seq I falls below 0.01% for `CYAAGSASWSRG` .
Result: Not met

Problem: hey, is Percentage of the pool, Seq I for `RRDRFDQCVL` lower than 0.01% or not?
Result: Met

Problem: # TODO verify Percentage of the pool, Seq I < 0.01% strictly for this sequence: `HSYGSSQIAYH`
Result: Not met

Problem: A record lists `ISGGRNWRAG` . Is its Percentage of the pool, Seq I below 0.01%?
Result: Not met

Problem: Record `DPYCPFFPEFR` : is its Percentage of the pool, Seq I strictly below 0.01%?
Result: Not met

Problem: Consider the sequence `GRRNECLSRTS` . Is its Percentage of the pool, Seq I strictly less than 0.01%?
Result: Not met

Problem: Take the sequence `YVFGNRSFARG` and say whether its Percentage of the pool, Seq I is less than 0.01%.
Result: Met

Problem: I wonder whether `CYGGRSFIYAWS` has Percentage of the pool, Seq I below 0.01%. Can you tell?
Result: Not met

Problem: Does this sequence meet the criterion Percentage of the pool, Seq I < 0.01%? `WSTRERQISC`
Result: Not met

Problem: Just wondering, is Percentage of the pool, Seq I of `VARGSKDWRWS` below 0.01%?
Result: Met

###

- Tgt: biotinylated CD59 (Homo sapiens, UniProt P13987)
- Construct: Recombinant soluble human CD59 with an additional C-terminal cysteine residue
- Sequence (P13987 26-102 limits assumed): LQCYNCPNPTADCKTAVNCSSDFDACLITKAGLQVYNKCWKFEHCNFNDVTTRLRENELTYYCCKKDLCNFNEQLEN
- Assay Remarks: mRNA-display cyclic peptide screen against CD59-biotin, NGS abundance after 6th selection round
- Condition Label: counts normalised by total counts of sample Seq I; percentage of the pool, sheet R6
Response key: satisfied means Percentage Seq I >= 0.09%; not satisfied means Percentage Seq I < 0.09%.

Problem: Quick check, Percentage Seq I >= 0.09%? `FVFGNRHFRTE`
Result: satisfied

Problem: Does `SSYRELAHLPC` have a reported Percentage Seq I of at least 0.09%?
Result: not satisfied

Problem: Is the recorded value of Percentage Seq I equal to or greater than 0.09% for this sequence? `SSWAQVPCYS`
Result: not satisfied

Problem: Check this sequence for Percentage Seq I at or above 0.09%: `CFSRRLTAGAI`
Result: satisfied

Problem: Exam item: decide whether the reported Percentage Seq I for `CAWGNRHTAYY` is at least 0.09%.
Result: not satisfied

Problem: Exam item: decide whether the reported Percentage Seq I for `CYGGRTFVYAWS` is at least 0.09%.
Result: satisfied

Problem: I'd appreciate it if you could say whether `CFAHRITDPDTQ` has Percentage Seq I at least equal to 0.09%.
Result: not satisfied

Problem: Could you tell me if the measured Percentage Seq I of `CFQNRVTSDSAK` reaches 0.09% or more?
Result: satisfied

Problem: I'd appreciate it if you could say whether `VWGNRWTRIYW` has Percentage Seq I at least equal to 0.09%.
Result: not satisfied

Problem: Item `CHGGRTFIYAWS` with Percentage Seq I of 0.09% or above?
Result: not satisfied

Problem: For this sequence, is measured Percentage Seq I 0.09% or higher? `CFARRLSSSHSL`
Result: satisfied

Problem: Threshold query (Percentage Seq I >= 0.09%) on `CFQRRTLGPDAI`
Result: satisfied

Problem: Reported Percentage Seq I reaches at least 0.09% for `WSTRTFTCRTLL` ?
Result: satisfied

Problem: // inclusive: Percentage Seq I at least 0.09%? input: `VASGGRYWSRA`
Result: satisfied

Problem: Does Percentage Seq I meet or surpass 0.09% for `CFAFRLSQTSV` ?
Result: satisfied

Problem: Evaluate `CFALRLSQTSV` : Percentage Seq I at minimum 0.09%?
Result: not satisfied

Problem: Item `SWTWGNRNSVRG` with Percentage Seq I of 0.09% or above?
Result: not satisfied

Problem: Test whether the sequence `CIDVYGRMWA` records Percentage Seq I of 0.09% or higher.
Result: not satisfied

Problem: Say whether `SSYRELAHLSC` shows Percentage Seq I of 0.09% or more.
Result: satisfied

Problem: Exam item: decide whether the reported Percentage Seq I for `CLDKWGRLWT` is at least 0.09%.
Result: not satisfied

Origin of the recorded values: paper PMC12207370
